# target_system: UniProtKB P08581
# test_protocol: Met kinase inhibition (cell assay)
measurement_kind: IC50

// query IC50 value for entry Cc1ccc2oc(=O)n(Cc3cccc(-c4ncc(OCCN5CCOCC5)cn4)c3)c2n1 [Compound A79]
10 to 1000 nM

// query IC50 value for entry COC(=O)c1ccc2oc(=O)n(Cc3cccc(NC(=O)OCCCN(C)C)c3)c2c1 [Compound A15]
10 to 1000 nM

// query IC50 value for entry CCS(=O)(=O)c1ccc2oc(=O)n(Cc3cccc(-c4ncc(OCCCN(C)C)cn4)c3)c2c1 [Compound A82]
10 to 1000 nM

// query IC50 value for entry CN(C)CCCOc1cnc(-c2cccc(Cn3c(=O)oc4ccc(C#N)cc43)c2)nc1 [Compound A66]
10 to 1000 nM

###

# target_system: Met kinase (Homo sapiens, UniProt P08581)
# Sequence (P08581 25-1390): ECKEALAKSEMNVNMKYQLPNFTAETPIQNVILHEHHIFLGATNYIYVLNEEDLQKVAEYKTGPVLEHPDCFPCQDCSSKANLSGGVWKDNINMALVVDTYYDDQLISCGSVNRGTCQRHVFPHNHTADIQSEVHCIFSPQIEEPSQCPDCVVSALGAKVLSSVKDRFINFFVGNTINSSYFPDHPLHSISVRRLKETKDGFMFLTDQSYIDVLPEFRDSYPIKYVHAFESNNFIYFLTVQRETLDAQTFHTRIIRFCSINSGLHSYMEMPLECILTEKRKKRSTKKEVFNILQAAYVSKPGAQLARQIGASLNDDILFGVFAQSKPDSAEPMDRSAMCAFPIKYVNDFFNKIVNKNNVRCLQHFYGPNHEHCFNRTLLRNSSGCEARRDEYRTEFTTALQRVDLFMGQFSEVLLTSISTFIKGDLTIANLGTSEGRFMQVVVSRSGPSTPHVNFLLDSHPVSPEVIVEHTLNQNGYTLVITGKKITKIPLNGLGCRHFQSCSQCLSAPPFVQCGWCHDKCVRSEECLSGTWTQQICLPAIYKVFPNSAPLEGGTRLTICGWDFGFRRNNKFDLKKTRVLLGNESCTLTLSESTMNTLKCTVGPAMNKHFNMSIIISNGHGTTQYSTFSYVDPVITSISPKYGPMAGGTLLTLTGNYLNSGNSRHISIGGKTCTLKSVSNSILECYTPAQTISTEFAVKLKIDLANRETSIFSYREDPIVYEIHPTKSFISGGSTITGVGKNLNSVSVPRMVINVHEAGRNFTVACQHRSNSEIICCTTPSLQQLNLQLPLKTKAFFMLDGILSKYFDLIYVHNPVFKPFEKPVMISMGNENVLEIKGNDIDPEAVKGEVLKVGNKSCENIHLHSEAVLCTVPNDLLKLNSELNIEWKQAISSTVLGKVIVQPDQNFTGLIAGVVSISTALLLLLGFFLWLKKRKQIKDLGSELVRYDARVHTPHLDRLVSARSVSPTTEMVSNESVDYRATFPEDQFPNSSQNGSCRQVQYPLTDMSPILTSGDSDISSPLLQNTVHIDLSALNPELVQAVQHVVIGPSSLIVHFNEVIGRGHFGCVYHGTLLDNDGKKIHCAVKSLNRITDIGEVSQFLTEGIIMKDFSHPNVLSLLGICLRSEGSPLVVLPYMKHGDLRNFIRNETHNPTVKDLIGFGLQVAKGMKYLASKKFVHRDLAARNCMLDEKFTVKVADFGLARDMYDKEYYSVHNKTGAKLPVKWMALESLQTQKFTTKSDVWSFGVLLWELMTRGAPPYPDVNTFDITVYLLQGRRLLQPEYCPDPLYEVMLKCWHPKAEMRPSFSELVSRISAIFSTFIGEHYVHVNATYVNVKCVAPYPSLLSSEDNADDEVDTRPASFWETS
# test_protocol: Met kinase inhibition (cell assay)
pIC50: −log10 of the molar value.
measurement_kind: pIC50

// query pIC50 value for entry Cc1ccc2oc(=O)n(Cc3cccc(NC(=O)OCCCN4CCN(C)CC4)c3)c2c1
6.00 to 8.00

// query pIC50 value for entry CN1CCN(CCCOC(=O)Nc2cccc(Cn3c(=O)oc4cc(Cl)ccc43)c2)CC1
6.00 to 8.00

// query pIC50 value for entry CN(C)CCCOc1cnc(-c2cccc(Cn3c(=O)oc4ncccc43)c2)nc1
5.00 to 6.00

// query pIC50 value for entry CCCNC(=O)c1ccc2oc(=O)n(Cc3cccc(NC(=O)OCCCN4CCN(C)CC4)c3)c2c1
6.00 to 8.00

Hey, just so you know, these numbers are from patent US8071593B2.
